# assayText: Human HepG2 cell viability assay in 384 well format
# Format: toxicity, cell-based
# Set-up: dose 125 nL, time 70.5 hour; concentration not given beside the values
# conditionLabel: HepG2 cells, read-out: Inhibition
measurementType: cytotoxicity at 70.5 h
Give the value; after it, write the unit.

Dear colleague, I am looking for the recorded cytotoxicity at 70.5 h of the following molecule: COc1ccc(F)cc1NC(=O)NCC1(C)COC1 0.338%

Look up cytotoxicity at 70.5 h: COc1c(CNCCc2c[nH]c3cc(F)ccc23)c(C)nn1C 3.85%

Can you look up the measured cytotoxicity at 70.5 h of CC(C)OCc1nn(C)c2c1CCN(CC1CC1)C2 for me? -2.45%

Quick one: cytotoxicity at 70.5 h of CC(=O)N1CCN(Cc2ccco2)CC2(CC(=O)N(C)C2)C1 (centres undefined) ? 20.7%

# get_value(readout='cytotoxicity at 70.5 h', item= O=C(Nc1ccccc1F)C1=NN(c2ccccc2)C(=O)CN1 ) -4.94%

If you can, please state the reported cytotoxicity at 70.5 h value of Cc1ccc(N2CCc3ncc(CNc4ccccn4)n3CC2)nn1 . -1.74%

Please give the measured cytotoxicity at 70.5 h for this molecule: CN(C)c1cc(CNC(=O)Nc2ccc(N3CCCC3)nc2)ccn1 1.53%

// query cytotoxicity at 70.5 h value for entry Cc1nc(C)c(COc2ccc(S(=O)(=O)N(C)C)cc2)s1 -22.5%

Tell me the measured cytotoxicity at 70.5 h of O=C(CN1CC(c2nc(-c3ccco3)no2)C1)NCCc1ccccc1 , please. -11.2%

Consider the molecule shown here: CCn1ncc2c1C(COC)CN(Cc1ccc(C)o1)C2 (centres undefined) What is its recorded cytotoxicity at 70.5 h? 2.21%

# query: cytotoxicity at 70.5 h of entry Cc1noc(C)c1CNC(=O)N1CCC(Cc2cnn(C)c2)C1 (centres undefined) -3.98%

Given the entry O=C(c1cc(C2CC2)no1)N1C[C@H]2CC[C@@H]1CN(Cc1ccccn1)C2 , report its measured cytotoxicity at 70.5 h. -14.9%

Data request, read-out cytotoxicity at 70.5 h, for COc1cccc(S(=O)(=O)CCN2CCN(CCO)CC2)c1 -2.82%

# input molecule: OCCCN1CCCC1c1nc(Cc2ccc(F)cc2)no1 (centres undefined) ; wanted: its cytotoxicity at 70.5 h 8.04%

Which cytotoxicity at 70.5 h value belongs to O=C(c1ccc2c(c1)OCO2)N1C[C@@H](CN2CCCCC2)[C@@H](CO)C1 ? -0.201%

Entry under review: Cc1cccnc1NC(=O)NC(C)Cn1cccn1 (centres undefined) . Reported cytotoxicity at 70.5 h? -7.34%

For the molecule shown here, CCOCC(=O)N1CCn2cc(CN(C)Cc3ccco3)nc2C1 , give the reported cytotoxicity at 70.5 h. -0.359%

What measured cytotoxicity at 70.5 h goes with Cc1cc(CN2C[C@@H]3CN(C(=O)c4ccsc4)CCO[C@@H]3C2)no1 ? 5.07%

Param item = COCCC1COC2(CCN(C(C)=O)CC2)C1 (centres undefined) ; retrieve measured cytotoxicity at 70.5 h. -5.06%

I have this molecule here, CCCc1cncnc1N1CCC2(CCC(=O)N(CCCO)C2)CC1 , and I need its recorded cytotoxicity at 70.5 h. -10.1%

Which cytotoxicity at 70.5 h is reported for this molecule? O=C1CC2(CCN(C(=O)c3ccccn3)C2)Nc2ccccc2N1 (centres undefined) -14.7%

Quick one: cytotoxicity at 70.5 h of O=C(NCCNC(=O)C1CCCCC1)NCCn1cccc1 ? -4.89%

Bench note: what cytotoxicity at 70.5 h did CC(=O)N1CCN(c2cc(CCNC(=O)C(C)C)nc(C3CC3)n2)CC1 show? -7.84%

Need cytotoxicity at 70.5 h of O=C(O)C1(n2ccnc2)CCN(Cc2ccc3occc3c2)CC1 , thanks. -5.96%

Data credit: ChEMBL document CHEMBL3507680
